system: NCI-H460; test: NCI 60 cell line panel screen (SRB); format: cell-based, human; conditions: NCI-H460 (Non-Small Cell Lung Cancer); TGI: PG=0
measured.attribute: Log10TGI50 (log10M)
Enter your answer as a number in log10M; do not include the unit.

Tell me the measured Log10TGI50 of CC1CCC2C(C)C(CC(COC(=O)c3cc[n+]([O-])cc3)CC3OC4OC5(C)CCC6C(C)CCC(C3C)C46OO5)OC3OC4(C)CCC1C32OO4 (stereo not shown) , please.
−4.92

Any idea what Log10TGI50 was measured for CC(=O)O[C@H]1C(=O)[C@@]2(C)[C@H]([C@H](OC(=O)c3ccccc3)[C@]3(O)C[C@H](OC(=O)[C@H](O)[C@@H](NC(=O)c4ccccc4)c4ccccc4)C(C)=C1C3(C)C)[C@]1(OC(C)=O)CO[C@@H]1C[C@@H]2O [Paclitaxel, paclitaxel, reference compound] ?
−4.92

Quick one: Log10TGI50 of CC1CCC2C(C)C(CC(O)(CO)CC3OC4OC5(C)CCC6C(C)CCC(C3C)C46OO5)OC3OC4(C)CCC1C32OO4 (stereo not shown) ?
−4.40

Give its Log10TGI50 value. Item: CC1CCC2C(C)C(CC(O)(CC3OC4OC5(C)CCC6C(C)CCC(C3C)C46OO5)CS(=O)(=O)c3ccc(C(=O)O)cc3)OC3OC4(C)CCC1C32OO4 (stereo not shown) [Compound 10c]
−5.11

Return reported Log10TGI50; argument: CC1CCC2C(C)C(CC(CO)CC3OC4OC5(C)CCC6C(C)CCC(C3C)C46OO5)OC3OC4(C)CCC1C32OO4 (stereo not shown)
−4.71
